# credit: PubChem BioAssay AID588397

- procedure summary: qHTS of small molecules that selectively kill Giardia lamblia: Hit Validation.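 Also: viability measured as ATP content by luminescence so killing lowers signal; trophozoites exposed to compounds for 48 h anaerobically at 37 °C; nearly all actives have a fitted effect of over 65% in size.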
- measurement conditions: Giardia lamblia trophozoite viability, dose-response; series mostly up to 38.3 µM
The whole screen tested about 1,300 compounds, of which about 1,000 (77%) were called active. About 7% were inconclusive and are not listed. Calls follow the shape of the dose curve; as a rule, active = well fitted inhibition curve with a large enough effect; inconclusive = small, poorly fitted or top-dose-only effect; inactive = no such curve, though single readings can be large or run the other way. So high a share suggests a set chosen from earlier hits. Some of the results follow.
Write down one outcome, taken from active, inactive

Past entries and their recorded results:
O=C(Nc1ccccc1C(=O)O)c1ccc(NC(=O)C2CC2)cc1
active
CN(CCc1ccccc1)C(=O)c1cccc(NC(=O)Cc2cccc(NC(=O)C3CCN(C(=O)C4CCCC4)CC3)c2)c1
inactive
CCn1c(=NC(=O)c2cccc(N3C(=O)CCC3=O)c2)sc2c(OC)ccc(OC)c21
active
Cn1c([N+](=O)[O-])cnc1N1CCN(c2nncs2)C1=O
active

Proceed to the following item.
IN: // return assay outcome for CN(Cc1ccccc1)C(=O)c1ccc(NC(=O)Cc2cccc(NC(=O)C3CCN(C(=O)C4CC4)CC3)c2)cc1
OUT: inactive
